Test: Inhibition of binding to fibrinogen receptor
observed.property: Log IC50
// no unit, no text: just the number

input: Which Log IC50 value belongs to CCc1ccc(OCCNC(=O)C(CC(=O)O)NC(=O)CCCOc2ccc(C(=N)N)cc2)cc1 (centres undefined) ?
output: -6.5

input: Which Log IC50 value belongs to CC(C)[C@H](NC(=O)[C@H](CC(=O)O)NC(=O)CCCOc1ccc(C(=N)N)cc1)C(=O)N1CCOCC1 ?
output: -7.1

input: Which Log IC50 value belongs to CCN(CC)C(=O)[C@@H](NC(=O)[C@H](CC(=O)O)NC(=O)CCCOc1ccc(C(=N)N)cc1)C(C)C ?
output: -6.6

input: Which Log IC50 value belongs to CC(C)[C@H](NC(=O)[C@H](CC(=O)O)NC(=O)CCCOc1ccc(C(=N)N)cc1)C(=O)NC1CCCCC1 ?
output: -6.7
